# ASSAYED SYSTEM: KRas-mediated phosphorylation of ERK in MKN1 cells (Homo sapiens, UniProt P01116)
# Construct: pERK HTRF read-out
# Sequence (P01116 1-188 isoform P01116-2): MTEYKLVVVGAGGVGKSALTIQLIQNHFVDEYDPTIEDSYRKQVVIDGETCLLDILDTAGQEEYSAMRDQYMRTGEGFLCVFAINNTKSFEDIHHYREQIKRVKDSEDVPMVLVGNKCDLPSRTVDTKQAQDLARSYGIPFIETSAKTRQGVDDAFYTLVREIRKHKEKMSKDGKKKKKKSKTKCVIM
# EXPERIMENT NOTES: Inhibition of KRas-mediated phosphorylation of ERK (HTRF), MKN1 cells
# Format: cell-based
# CONDITION: MKN1 cells (KRas WT); HTRF pERK; 3 h incubation
# Procedure: Inhibition of KRas Phosphorylation of ERK (HTRF) by Exemplary Compounds of Formula (Ia) or (Ib) Cisbio HTRF Advanced pERK Assay Catalog #64AERPEH • Cells: MKN1, PSN1 • Procedure: • 1. Day 1: Seed 6,000 cells/well −25 μl/well in 384-well white solid bottom plate; RPM1_10% FBS. Incubate overnight at 37 °C/5% CO2. • 2.
We label by threshold. Values of IC50 strictly beneath 300 nM are 1.0. Values of 300 nM and up are 0.0.

Here's what some known entries look like.
Cc1ccn(C(=O)C2CCCN(c3nc(OC[C@@]45CCCN4C[C@H](F)C5)nc4c(F)c(-c5csc6ccc(N)nc56)c(Cl)cc34)CC2)n1 (some centres unmarked) : 0.0
CCc1c(F)ccc2cc(O)cc(-c3ncc4c(NC[C@@H]5[C@H](C(=O)n6ccc(C)n6)C5(C)C)nc(OC[C@@]56CCCN5C[C@H](F)C6)nc4c3F)c12 : 0.0

Next compound, please.
Query: Is it true that IC50 reported for N#Cc1c(N)sc2c(F)ccc(-c3c(Cl)cc4c(N5CCN(S(=O)(=O)n6cnnc6)CC5)nc(OC[C@@]56CCCN5C[C@H](F)C6)nc4c3F)c12 is less than 300 nM?
Response: 1.0

* * *

Collected IC50 values appear next to each entry.
# ASSAYED SYSTEM: KRas WT (Homo sapiens, UniProt P01116)
# Construct: Biotinylated KRas (corresponding to amino acids 1-169, produced at Accelegan Inc.); biotin (biotinylated); purchased Accelegan Inc
# Sequence (P01116 1-169 isoform P01116-2): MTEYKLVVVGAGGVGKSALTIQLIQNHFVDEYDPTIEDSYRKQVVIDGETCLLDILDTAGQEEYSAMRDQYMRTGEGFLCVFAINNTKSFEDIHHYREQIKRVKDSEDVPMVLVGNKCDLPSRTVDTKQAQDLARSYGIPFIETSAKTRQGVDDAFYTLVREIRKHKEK
# EXPERIMENT NOTES: KRas binding assay, TR-FRET displacement of Cy5 labelled tracer
# CONDITION: 60-minute incubation at room temperature, 1% DMSO, pH 7.5
Quick reminder: number only, in nM, skip the unit.

Cc1ccn(C(=O)[C@H]2C[C@H]2CNc2nc(OC[C@@]34CCCN3C[C@H](F)C4)nc3c(F)c(-c4ccc(F)c5sc(N)c(C#N)c45)c(Cl)cc23)n1 [Example 182] : 35
CCc1c(F)ccc2cc(O)cc(-c3ncc4c(N5CCCC(C(=O)n6ccc(C)n6)CC5)nc(OCC5(CN(C)C)CC5)nc4c3F)c12 (centres unmarked) [Example 167] : 528
CCc1c(F)ccc2cc(O)cc(-c3ncc4c(NC[C@@H]5C[C@H]5C(=O)n5ccc(C)n5)nc(OC[C@@]56CCCN5C[C@H](F)C6)nc4c3F)c12 [Example 112] : 19
CON(C)C(=O)C1CCN(c2nc(OC[C@@]34CCCN3C[C@H](F)C4)nc3c(F)c(-c4ccc(F)c5sc(N)c(C#N)c45)c(Cl)cc23)CC1 [Example 242] : 8
CCc1c(F)ccc2cc(O)cc(-c3ncc4c(N5CCN(C(=O)n6ccnn6)CC5)nc(OC[C@@]56CCCN5C[C@H](F)C6)nc4c3F)c12 [Example 151] : 9

Query: Given CCc1c(F)ccc2cc(O)cc(-c3ncc4c(N(C)CCNC(=O)n5nccn5)nc(OC[C@@]56CCCN5C[C@H](F)C6)nc4c3F)c12 [Example 251] , state its recorded IC50.
Response: 70

Query: Field entry: CCc1c(F)ccc2cc(O)cc(-c3ncc4c(N5CCC(C)(C(=O)n6ccc(C)n6)CC5)nc(OC[C@@]56CCCN5C[C@H](F)C6)nc4c3F)c12 [Example 83]
Response: 790

Query: N#Cc1c(N)sc2c(F)ccc(-c3c(Cl)cc4c(N5CCN(C(=O)n6nccn6)CC5)nc(OC[C@@]56CCCN5C[C@H](F)C6)nc4c3F)c12 [Example 191] ?
Response: 6

* * *

# ASSAYED SYSTEM: KRas G12C (Homo sapiens, UniProt P01116, G12C)
# Construct: Biotinylated KRas (corresponding to amino acids 1-169, produced at Accelegan Inc.); biotin (biotinylated); purchased Accelegan Inc
# Sequence (P01116 1-169 isoform P01116-2 G12C): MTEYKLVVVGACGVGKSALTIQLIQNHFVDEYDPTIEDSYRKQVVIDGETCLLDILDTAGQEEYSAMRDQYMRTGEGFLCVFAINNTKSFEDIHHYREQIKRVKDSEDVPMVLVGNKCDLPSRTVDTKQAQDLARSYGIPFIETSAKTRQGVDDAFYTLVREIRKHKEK
# EXPERIMENT NOTES: KRas binding assay, TR-FRET displacement of Cy5 labelled tracer
# CONDITION: 60-minute incubation at room temperature, 1% DMSO, pH 7.5
PROPERTY MEASURED: IC50
Provide the measurement as a number trailed by its unit.

Some compounds with known IC50 results, for comparison:
N#Cc1c(N)sc2c(F)ccc(-c3c(Cl)cc4c(N5CCC(C(=O)N6CCOCC6)CC5)nc(OC[C@@]56CCCN5C[C@H](F)C6)nc4c3F)c12 [Example 241] : 11 nM
Cc1ccn(C(=O)C2CCCN(c3nc(OC[C@@]45CCCN4C[C@H](F)C5)nc4c(F)c(-c5c(I)ccc(N)c5C#N)c(Cl)cc34)CC2)n1 (stereo partly drawn) [Example 263] : 1720 nM

Kindly review the next compound as well.
Query: # IC50 lookup, item Cc1ccn(C(=O)C2CC3CN(c4nc(OC[C@@]56CCCN5C[C@H](F)C6)nc5c(F)c(-c6ccc(F)c7sc(N)c(C#N)c67)c(Cl)cc45)CC32)n1 (stereo partly drawn) [Example 178]
Response: 13 nM

* * *

# ASSAYED SYSTEM: KRas-mediated phosphorylation of ERK in A549 cells (Homo sapiens, UniProt P01116, G12S)
# Construct: pERK HTRF read-out
# Sequence (P01116 1-188 isoform P01116-2 G12S): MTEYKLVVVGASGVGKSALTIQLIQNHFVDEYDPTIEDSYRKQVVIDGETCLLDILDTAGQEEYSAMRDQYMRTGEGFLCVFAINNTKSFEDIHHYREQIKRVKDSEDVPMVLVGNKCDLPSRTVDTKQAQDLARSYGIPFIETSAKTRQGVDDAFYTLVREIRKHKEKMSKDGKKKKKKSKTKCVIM
# EXPERIMENT NOTES: Inhibition of KRas-mediated phosphorylation of ERK (HTRF), A549 cells
# Format: cell-based
# CONDITION: HTRF pERK, 3 h incubation
PROPERTY MEASURED: IC50 (nM)
Please state the figure in nM; there is no need to write the unit.

Below, 3 compounds whose answers are already recorded.
CCc1c(F)ccc2cc(O)cc(-c3ncc4c(N5CC(CC(=O)n6ccc(C)n6)C5)nc(OC[C@@]56CCCN5C[C@H](F)C6)nc4c3F)c12 [Example 84] : 55
CCc1c(F)ccc2cc(O)cc(-c3ncc4c(NC[C@@H]5[C@H](C(=O)n6ccc(C)n6)C5(C)C)nc(OC[C@@]56CCCN5C[C@H](F)C6)nc4c3F)c12 [Example 109] : 1920
CCc1c(F)ccc2cc(O)cc(-c3ncc4c(N5C[C@H]6C[C@H](C(=O)n7ccc(C)n7)C[C@H]6C5)nc(OC[C@@]56CCCN5C[C@H](F)C6)nc4c3F)c12 [Example 160] : 3380

Query: Recorded IC50 for CCc1c(F)ccc2cc(O)cc(-c3ncc4c(N(C)CCCC(=O)n5ccc(C)n5)nc(OC[C@@]56CCCN5C[C@H](F)C6)nc4c3F)c12 [Example 110] , please?
Response: 12

Query: Would you mind doing CCc1c(F)ccc2cc(O)cc(-c3ncc4c(N5C[C@@H]6C[C@H](C(=O)n7ccc(C)n7)[C@@H]6C5)nc(OC[C@@]56CCCN5C[C@H](F)C6)nc4c3F)c12 [Example 211] as well?
Response: 23

* * *

# ASSAYED SYSTEM: KRas G12C (Homo sapiens, UniProt P01116, G12C)
# Construct: Biotinylated KRas (corresponding to amino acids 1-169, produced at Accelegan Inc.); biotin (biotinylated); purchased Accelegan Inc
# EXPERIMENT NOTES: KRas binding assay, TR-FRET displacement of Cy5 labelled tracer
# CONDITION: 60-minute incubation at room temperature, 1% DMSO, pH 7.5
Listed here are molecules together with their documented log10(IC50).
Hello, just confirming the data are log10 of IC50 with units of nM.

Solved entries:
CCc1c(F)ccc2cc(O)cc(-c3ncc4c(N5CCC(C(=O)n6ccc(C)n6)C6CC65)nc(OC[C@@]56CCCN5C[C@H](F)C6)nc4c3F)c12 (stereo partly drawn) [Example 97] : 2.60
Cc1ccn(C(=O)CCCCN(C)c2nc(OC[C@@]34CCCN3C[C@H](F)C4)nc3c(F)c(-c4ccc(F)c5sc(N)c(C#N)c45)c(Cl)cc23)n1 [Example 199] : 1.23
CCc1c(F)ccc2cc(O)cc(-c3ncc4c(N5CCC(C(=O)N(C)S(C)(=O)=O)CC5)nc(OC[C@@]56CCCN5C[C@H](F)C6)nc4c3F)c12 [Example 257] : 0.70
CN(C=O)C(=O)CCCN(C)c1nc(OC[C@@]23CCCN2C[C@H](F)C3)nc2c(F)c(-c3ccc(F)c4sc(N)c(C#N)c34)c(Cl)cc12 [Example 235] : 0.48
CCc1c(F)ccc2cc(O)cc(-c3ncc4c(N5CCCC(C(=O)n6ccc(C)n6)CC5)nc(OC[C@@H]5CCCN5C)nc4c3F)c12 (stereo partly drawn) [Example 168] : 2.58
CCc1c(F)ccc2cc(O)cc(-c3ncc4c(N5CCC(C(=O)N(C)C(=O)COC)CC5)nc(OC[C@@]56CCCN5C[C@H](F)C6)nc4c3F)c12 [Example 209] : 2.23
O=C(OCC(F)(F)F)[C@@H]1[C@@H]2CC[C@H]1CN(c1nc(OCC34CCCN3CCC4)nc3c(F)c(-c4cccc5cccc(F)c45)ncc13)C2 [Example 18] : 4.62
CCc1c(F)ccc2cc(O)cc(-c3ncc4c(N5CC6C(CC(=O)n7ccc(C)n7)C6C5)nc(OC[C@@]56CCCN5C[C@H](F)C6)nc4c3F)c12 (stereo partly drawn) [Example 120] : 2.15
CCc1c(F)ccc2cc(O)cc(-c3ncc4c(N(C)CCC(C)C(=O)N(C)C(C)=O)nc(OC[C@@]56CCCN5C[C@H](F)C6)nc4c3F)c12 (stereo partly drawn) [Example 284] : 0.90
CCN(C(C)=O)C(=O)CCCN(C)c1nc(OC[C@@]23CCCN2C[C@H](F)C3)nc2c(F)c(-c3ccc(F)c4sc(N)c(C#N)c34)c(Cl)cc12 [Example 291] : 0.78

Consider now this further molecule.
Query: Form field: log10(IC50) recorded for Cc1ccn(C(=O)C2CCCN(c3nc(OC[C@@]45CCCN4C[C@H](F)C5)nc4c(F)c(-c5nc(N)ccc5C)c(Cl)cc34)CC2)n1 (stereo partly drawn) [Example 222] with KRas G12C (Homo sapiens, UniProt P01116, G12C) (enter value)
Response: 4.26

Values from patent US20260356856A1
